Molecular target: T1, human IL-3 (human, UniProt P08700 20-152)
T1 sequence (looked up): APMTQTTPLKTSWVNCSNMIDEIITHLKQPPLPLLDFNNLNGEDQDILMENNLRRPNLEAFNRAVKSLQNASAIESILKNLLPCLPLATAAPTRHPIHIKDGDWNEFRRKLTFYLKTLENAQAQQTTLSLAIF
Assay: flow cytometry, 293F cells expressing mutant IL-3Rα and CD131

{"columns": ["Binder", "binding result"],
 "data": [
  ["human IL-3Rα E51Q/S59A/P88T triple mutant, full length (receptor) TKEDPNPPITNLRMKAKAQQLTWDLNRNVTDIQCVKDADYAMPAVNNSYCQFGAISLCEVTNYTVRVANTPFSTWILFPENSGKPWAGAENLTCWIHDVDFLSCSWAVGPGAPADVQYDLYLNVAKRQQYECLHYKTDAQGTRIGCRFDDISRLSSGSQSSHILVRGRSAAFGIPCTDKFVVFSQIEILTPPNMTAKCNKTHSFMHWKMRSHFNRKFRYELQIQKRMQPVITEQVRDRTSFQLLNPGTYTVQIRARERVYEFLSAWSTPQRFECDQEEGANTRAWRTSLLIALGTLLALVCVFVICRRYLVMQRLFPRIPHMKDPIGDSFQNDKLVVWEAGKAGLEECLVTEVQVVQKT", "binds"]
]}

Origin of the recorded values: patent US20160031996A1
